- system_name: NDM-1 (Klebsiella pneumoniae, UniProt C7C422)
- Sequence (C7C422 29-270, looked up, species assumed): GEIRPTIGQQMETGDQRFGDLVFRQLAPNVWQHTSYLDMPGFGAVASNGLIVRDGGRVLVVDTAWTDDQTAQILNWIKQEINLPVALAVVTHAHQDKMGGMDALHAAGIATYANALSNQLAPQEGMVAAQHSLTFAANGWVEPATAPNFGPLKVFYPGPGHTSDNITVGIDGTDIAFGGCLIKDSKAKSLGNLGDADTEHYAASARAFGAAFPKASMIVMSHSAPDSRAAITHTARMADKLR
- experiment_description: biochemical
- Format: biochemical
- recorded_conditions: NDM-1 IC50, 300 μM imipenem, 10 mM HEPES pH 7.5, 25 °C; average of at least two independent assays
recorded_metric: IC50

>>> test_value("N#Cc1cccc(CS(=O)(=O)Nc2scnc2C(=O)O)c1")
"8.82 µM"
>>> test_value("O=C(O)c1ncsc1NS(=O)(=O)c1ccccn1")
"12.9 µM"
>>> test_value("O=C(O)c1ncsc1NS(=O)(=O)Cc1ccc(Cl)c(Cl)c1")
"7.88 µM"

---

Each item that follows carries a reported log10 IC50.
- system_name: NDM-1 (Klebsiella pneumoniae, UniProt C7C422)
- experiment_description: biochemical
- Type: biochemical
- recorded_conditions: 300 μM imipenem, 10 mM HEPES pH 7.5, 25 °C; average of at least two independent assays; read-out: NDM-1 IC50
recorded_metric: log10 IC50 (log10 of the value in µM)

>>> test_value("COc1cccc(S(=O)(=O)Nc2cccc(C(=O)O)n2)c1 [Compound 45]")
1.64
>>> test_value("COc1cccc(CC(=O)Nc2ccnc(C(=O)O)c2)c1 [Compound 50]")
1.55
>>> test_value("CS(=O)(=O)Nc1cccc(C(=O)O)n1 [Compound 47]")
1.52
>>> test_value("O=C(O)c1cc(NS(=O)(=O)c2ccccc2)ccn1 [Compound 55]")
2.16
>>> test_value("COc1ccc(C(=O)Nc2cccc(C(=O)O)n2)cc1 [Compound 24]")
1.31
>>> test_value("O=C(CCc1ccccc1)Nc1cccnc1C(=O)O [Compound 19]")
1.31
>>> test_value("O=C(O)c1ncccc1NS(=O)(=O)Cc1ccc(Cl)cc1Cl [Compound 41]")
1.91
>>> test_value("O=C(Cc1c(Cl)cccc1Cl)Nc1cccnc1C(=O)O [Compound 21]")
0.95
